Assign GI50 to each entry below.
- Tested on: NCI-H226 lung
- assay procedure: NCI tumour cell line growth inhibition, 48 h

Below are worked cases with known answers.
| compound | GI50 |
| --- | --- |
| COc1cc2c(cc1OCCCCOc1ccc(-c3nc4ccccc4s3)cc1)N=C[C@@H]1CCCN1C2=O | 1.71 µM |
| Oc1ccc(C#CCOc2ccccc2)cc1CNCCN(Cc1ccccn1)Cc1ccccn1 | 1.34 µM |
| Cc1cc2cn3c4cccnc4[nH]c(=O)c3c2cc1C | 11.2 µM |

Give measured GI50 for every item shown.
1. O=C1CCS/C(=N\S(=O)(=O)c2ccc(N3N=C4c5ccccc5CC4C3c3cccs3)cc2)N1C(=O)c1ccccc1 (stereo not given)
2. C=C1C(=O)O[C@H]2[C@H]1CC/C(Cn1cc(-c3cc(C)c(C)cc3C)nn1)=C\CC[C@@]1(C)O[C@@H]21
3. OCc1ccc(N(CCN2CCCC2)Cc2ccc(F)cc2)cc1Cl
4. COc1ccc2c(c1)/C(=N/OC(C)=O)c1c-2c(=O)[nH]c2ccccc12
5. NC1CCC(N[C@@H]2C[C@H]2c2ccccc2)CC1 (stereo not given in full)
6. COc1ccc(-c2csc(NC(=O)c3cc(O)c(O)c(O)c3)n2)cc1

15.9 µM
1.46 µM
1.39 µM
14.3 µM
> 100 µM
9.59 µM

Form field: reported GI50 of `N#Cc1c(N)nc(N2CCOCC2)c(C#N)c1-c1ccccc1Cl`
55.5 µM

====

- Test system: ACHN renal
- assay procedure: NCI tumour cell line growth inhibition, 48 h
outcome measure: TGI (µM)
One number for each entry, in µM.

Dear colleague, could you send me TGI for each of the items below? Thanks.
1. O=C(/C=C/c1ccccc1Cl)c1ccc(Cl)cc1Cl
2. CC(=O)OCC1=C(C)C[C@H]([C@@H](COC(C)=O)C2CCC3C4C[C@H]5O[C@]56CC=CC(=O)[C@]6(C)C4CC[C@@]32C)OC1=O (stereo not given in full)
3. Cc1ccc(Sc2sc(-c3ccccc3)nc2[P+](c2ccccc2)(c2ccccc2)c2ccccc2)cc1
4. Oc1ccccc1-c1n[nH]c(=S)n1/N=C/c1ccc(-c2ccc(Br)cc2)o1

[32, 2.68, 0.933, 92]

====

Please provide measured TGI for the entries that follow.
- Tested on: SR leukemia
- assay procedure: NCI tumour cell line growth inhibition, 48 h

These solved cases illustrate the format of a correct answer.
| compound | TGI |
| --- | --- |
| O=[N+]([O-])c1c2nc3n(c2cc2c1nc1n2CCC1)CCC3 | > 100 µM |
| c1ccc(-c2cc(-c3cccs3)c(-c3cccs3)o2)cc1 | > 100 µM |
| CCCCCCCCCCCCCCCCCCOCC(COP(=O)([O-])OCC[N+](C)(C)C)OC (stereo not given) | > 60.1 µM |

For every item below, please supply its TGI.
1. CC(C)OC(=O)[C@@H](O)[C@H](CO)C1=CC([Si](C)(C)c2ccccc2)=CON1
2. Cc1cc(N(CCCl)CCCl)ccc1/C=N/NC(=O)Cc1cc(=O)oc2cc(O)ccc12
3. Cc1c2c(cc3c(=O)ccn(CCN(C)C)c13)c(=O)ccn2CCN(C)C

["> 100 µM", "> 100 µM", "37.6 µM"]

I have 7 compounds here; please give me TGI for each one.
1. N#Cc1ccc(Oc2nc3ccc(C(F)(F)F)cc3nc2-c2ccccc2)cc1
2. N#CC1C2CCC3(CC2CCN1C(=O)c1ccccc1)OCCO3 (stereo not given)
3. COc1ccc(/C=C/NC=O)cc1
4. Cc1cc(=O)oc2cc(OS(C)(=O)=O)ccc12
5. COc1cc2c(cc1OC)-c1cc3cc(OC)c(OC)cc3c(=O)n1CC2
6. CCOC(=O)Cn1c(=O)c2cc(-c3ccccc3)cc3c(Cl)nc4c(OC)c(OC)cc1c4c32
7. O=C1NN(c2ccccc2)C(=O)/C1=C/c1ccc(Br)o1

1: 9.86 µM; 2: > 100 µM; 3: > 100 µM; 4: > 100 µM; 5: > 100 µM; 6: > 100 µM; 7: 8.3 µM

Quick request: TGI for each listed item, please.
1. CS(=O)(=O)OCCCOS(C)(=O)=O
2. N=c1c2c(=S)n(-c3ccccc3)c(=S)n(-c3ccccc3)c2nc(SCCN2CCOCC2)n1-c1ccccc1
3. S=C(Nc1ccccn1)Nc1ccccc1Cl
4. COc1ccc(N(C)c2c3ccccc3nc3[nH]c4ccccc4c23)cc1
5. CCOC(=O)Nc1nc2c(C)cccc2s1

> 100 µM
2.79 µM
> 100 µM
50 µM
> 100 µM

Quick request: TGI for each listed item, please.
1. N#C/C(=C\c1ccc(Br)cc1)n1nnc2ccccc21
2. CC(=O)Oc1ccc(/C=C/C(=O)O[C@H]2CCCC[C@@H]2OC(=O)/C=C/c2ccc(OC(C)=O)c(OC(C)=O)c2)cc1OC(C)=O

1. 14.6 µM
2. > 100 µM
